assay: Plasma concentration in rat at 5 mg/kg, iv after 4 hrs; type: ADME, organism-based; parameters: dose 5 mg/kg, route intravenous
Test readout: concentration at 4 h (nM)
Numbers only, in nM.

Provide concentration at 4 h for all items below, preserving their order.
1. COc1ccc2c(c1)C1CC1(C(=O)N1CC(O)C1)Cn1c-2c(C2CCCCC2)c2ccc(C(=O)NS(=O)(=O)N(C)C)cc21 (racemic)
2. COc1ccc2c(c1)C1CC1(C(=O)N1C[C@@H](C)N(C(C)=O)[C@@H](C)C1)Cn1c-2c(C2CCCCC2)c2ccc(C(=O)NS(=O)(=O)N(C)C)cc21 (mixture of isomers)
3. COc1ccc2c(c1)C1CC1(C(=O)N1CC(C)(O)C1)Cn1c-2c(C2CCCCC2)c2ccc(C(=O)NS(=O)(=O)N(C)C)cc21 (racemic)
4. COc1ccc2c(c1)C1CC1(C(=O)N1C[C@@H](C)N(C)[C@@H](C)C1)Cn1c-2c(C2CCCCC2)c2ccc(C(=O)NS(=O)(=O)N(C)C)cc21 (mixture of isomers)

[17, 9, 29, 67]
